Tested on: TO-3-N3 (biotin conjugate)
experimental-details: pull-down binding Z-score (relative to library population); higher = stronger binding
assay-context: RNA library: Library-2
If the reported pull-down binding Z-score equals or exceeds 0.2, assign condition met. If not, assign condition not met.

Worked cases, answers included:
[
  {
    "sequence-record": "AGGGUGGAGCCCACUGUGGCUCCUGACUCAGCCCU [hsa-mir-6893]",
    "group": "condition not met"
  },
  {
    "sequence-record": "CAGUGAACUAUCAUUGUGCCACUG [hsa-mir-1254-1]",
    "group": "condition not met"
  },
  {
    "sequence-record": "UAAUAACUGACAAACAGACAAUUG [hsa-mir-4774]",
    "group": "condition not met"
  }
]

Continue with the next sequence.
Qu. Is it the case that "ACGUACUGCCACUAAAGCAUACAAUGUAACACAAGCUUUCGGCAGACGU" has pull-down binding Z-score reaching or exceeding 0.2?
Ans. condition met
